So I've got a bunch of compounds here, and I need their log10 IC50 values.
assay: Tested for the binding affinity against the Delta opioid receptor in guinea pig brain using [3H]DPDPE
Answers are given as log10 of IC50 in nM.

Task: Fill in: log10 IC50 of Oc1ccc2c3c1OC1[C@H](OCc4c5ccccc5cc5ccccc45)CCC4(O)C(C2)N(CC2CC2)CCC314 (stereo not given in full) is ___
Result: 1.68

Task: Also need Oc1ccc2c3c1OC1[C@@H](OCc4cccc5ccccc45)CCC4(O)C(C2)N(CC2CC2)CCC314 (stereo not given in full) , thanks.
Result: 0.82

Task: Now try Oc1ccc2c3c1OC1[C@H](OCc4ccc5ccccc5c4)CCC4(O)C(C2)N(CC2CC2)CCC314 (stereo not given in full) .
Result: 1.40

Task: Follow-up entry: Oc1ccc2c3c1OC1[C@@H](OCc4ccccc4)CCC4(O)C(C2)N(CC2CC2)CCC314 (stereo not given in full)
Result: 0.15

Task: Lookup Oc1ccc2c3c1OC1[C@H](OCc4ccc(-c5ccccc5)cc4)CCC4(O)C(C2)N(CC2CC2)CCC314 (stereo not given in full)
Result: 1.04

Task: Also need Oc1ccc2c3c1OC1[C@@H](OCc4ccc(-c5ccccc5)cc4)CCC4(O)C(C2)N(CC2CC2)CCC314 (stereo not given in full) , thanks.
Result: 1.28

Task: Moving on to the next compound: O=C(COC1CCC2(O)C3Cc4ccc(O)c5c4C2(CCN3CC2CC2)C1O5)C1[C@H]2C[C@@H]3C[C@@H](C[C@H]1C3)C2 (stereo not given in full)
Result: 1.48

Task: Please do the same for Oc1ccc2c3c1OC1[C@@H](OCc4c5ccccc5cc5ccccc45)CCC4(O)C(C2)N(CC2CC2)CCC314 (stereo not given in full) as well.
Result: 1.56

Task: What would you report for Oc1ccc2c3c1OC1[C@H](OCc4cccc5ccccc45)CCC4(O)C(C2)N(CC2CC2)CCC314 (stereo not given in full) ?
Result: 0.74

Task: Then Oc1ccc2c3c1OC1[C@@H](OCc4ccc5ccccc5c4)CCC4(O)C(C2)N(CC2CC2)CCC314 (stereo not given in full) ?
Result: 1.30
